- measurementDescription: qHTS assay to identify small molecule antagonists of the vitamin D receptor (VDR) signaling pathway - cell viability counter screen (AID 743225); also: nearly all actives have a fitted effect of over 50% in size
- conditions: VDR-bla HEK293T viability, CellTiter-Glo luminescence, 16 h; series mostly up to 61 µM
Inconclusive results are not listed. Calls of active or inactive are those of the source. Calls follow the shape of the dose curve; as a rule, active = well fitted cell-killing curve with a large enough effect in the repeat runs; inconclusive = weak or mixed curves, or effect the other way; inactive = no such curve, though single readings can be large or run the other way.
Output constraint: value belongs to class 1 = active, class 0 = inactive

CC(C)=C1CC[C@@H](C)CC1=O; class 0
Cc1cccc(C)c1NC(=O)CN1CCN(CCCC(c2ccc(F)cc2)c2ccc(F)cc2)CC1; class 1
O=C(O)CC(=O)O; class 0
Clc1ccc(C(c2ccccc2Cl)C(Cl)Cl)cc1 (stereo unspecified); class 0
O=C1C=CC(=O)N1c1ccccc1; class 1

Identify the outcome logged in this assay for the compound shown: CSc1c(Cl)c(Cl)c(Cl)c(Cl)c1Cl
class 0
